Target: human ACC2 (Homo sapiens (Human))
Procedure text: ACC2 assay (spectrophotometric 384 well assay, NADH-linked kinetic method)
Format: biochemical
Condition info: hACC2 construct lacking 128 N-terminal amino acids; coupled lactate dehydrogenase/pyruvate kinase reaction, 340 nm, 25° C.
Entries and their IC50

{"Smi": "CC(=O)N[C@@H](C)c1ccc(O[C@@H]2CCN(c3nc(OC4CCC4)ncc3F)C2)cc1", "IC50 [nM]": 368}
{"Smi": "COC1CCN(c2ncnc(N3CC[C@@H](Oc4ccc([C@H](C)NC(C)=O)cc4)C3)c2F)CC1", "IC50 [nM]": 360}
{"Smi": "CC(=O)N[C@@H](C)c1ccc(O[C@@H]2CCN(c3nc(N(C)CC(F)F)ncc3F)C2)cc1", "IC50 [nM]": 65}
{"Smi": "CC(=O)N[C@@H](C)c1ccc(O[C@@H]2CCN(c3ccnc(N4CC(F)(F)C(F)(F)C4)n3)C2)cc1", "IC50 [nM]": 115}
{"Smi": "CC(=O)N[C@@H](C)c1ccc(O[C@@H]2CCN(c3ncc(OC[C@H]4CC4(F)F)cn3)C2)cc1", "IC50 [nM]": 120}
{"Smi": "CC(=O)N[C@@H](C)c1ccc(O[C@@H]2CCN(c3nc(N(C)C(C)C)ncc3F)C2)cc1", "IC50 [nM]": 71}
{"Smi": "CC(=O)N[C@@H](C)c1ccc(O[C@@H]2CCN(c3nc(N4CCC5(CC5)C4)ncc3F)C2)cc1", "IC50 [nM]": 52}

====

Target: human ACC2 (Homo sapiens (Human), UniProt O00763)
Sequence (O00763 129-2458): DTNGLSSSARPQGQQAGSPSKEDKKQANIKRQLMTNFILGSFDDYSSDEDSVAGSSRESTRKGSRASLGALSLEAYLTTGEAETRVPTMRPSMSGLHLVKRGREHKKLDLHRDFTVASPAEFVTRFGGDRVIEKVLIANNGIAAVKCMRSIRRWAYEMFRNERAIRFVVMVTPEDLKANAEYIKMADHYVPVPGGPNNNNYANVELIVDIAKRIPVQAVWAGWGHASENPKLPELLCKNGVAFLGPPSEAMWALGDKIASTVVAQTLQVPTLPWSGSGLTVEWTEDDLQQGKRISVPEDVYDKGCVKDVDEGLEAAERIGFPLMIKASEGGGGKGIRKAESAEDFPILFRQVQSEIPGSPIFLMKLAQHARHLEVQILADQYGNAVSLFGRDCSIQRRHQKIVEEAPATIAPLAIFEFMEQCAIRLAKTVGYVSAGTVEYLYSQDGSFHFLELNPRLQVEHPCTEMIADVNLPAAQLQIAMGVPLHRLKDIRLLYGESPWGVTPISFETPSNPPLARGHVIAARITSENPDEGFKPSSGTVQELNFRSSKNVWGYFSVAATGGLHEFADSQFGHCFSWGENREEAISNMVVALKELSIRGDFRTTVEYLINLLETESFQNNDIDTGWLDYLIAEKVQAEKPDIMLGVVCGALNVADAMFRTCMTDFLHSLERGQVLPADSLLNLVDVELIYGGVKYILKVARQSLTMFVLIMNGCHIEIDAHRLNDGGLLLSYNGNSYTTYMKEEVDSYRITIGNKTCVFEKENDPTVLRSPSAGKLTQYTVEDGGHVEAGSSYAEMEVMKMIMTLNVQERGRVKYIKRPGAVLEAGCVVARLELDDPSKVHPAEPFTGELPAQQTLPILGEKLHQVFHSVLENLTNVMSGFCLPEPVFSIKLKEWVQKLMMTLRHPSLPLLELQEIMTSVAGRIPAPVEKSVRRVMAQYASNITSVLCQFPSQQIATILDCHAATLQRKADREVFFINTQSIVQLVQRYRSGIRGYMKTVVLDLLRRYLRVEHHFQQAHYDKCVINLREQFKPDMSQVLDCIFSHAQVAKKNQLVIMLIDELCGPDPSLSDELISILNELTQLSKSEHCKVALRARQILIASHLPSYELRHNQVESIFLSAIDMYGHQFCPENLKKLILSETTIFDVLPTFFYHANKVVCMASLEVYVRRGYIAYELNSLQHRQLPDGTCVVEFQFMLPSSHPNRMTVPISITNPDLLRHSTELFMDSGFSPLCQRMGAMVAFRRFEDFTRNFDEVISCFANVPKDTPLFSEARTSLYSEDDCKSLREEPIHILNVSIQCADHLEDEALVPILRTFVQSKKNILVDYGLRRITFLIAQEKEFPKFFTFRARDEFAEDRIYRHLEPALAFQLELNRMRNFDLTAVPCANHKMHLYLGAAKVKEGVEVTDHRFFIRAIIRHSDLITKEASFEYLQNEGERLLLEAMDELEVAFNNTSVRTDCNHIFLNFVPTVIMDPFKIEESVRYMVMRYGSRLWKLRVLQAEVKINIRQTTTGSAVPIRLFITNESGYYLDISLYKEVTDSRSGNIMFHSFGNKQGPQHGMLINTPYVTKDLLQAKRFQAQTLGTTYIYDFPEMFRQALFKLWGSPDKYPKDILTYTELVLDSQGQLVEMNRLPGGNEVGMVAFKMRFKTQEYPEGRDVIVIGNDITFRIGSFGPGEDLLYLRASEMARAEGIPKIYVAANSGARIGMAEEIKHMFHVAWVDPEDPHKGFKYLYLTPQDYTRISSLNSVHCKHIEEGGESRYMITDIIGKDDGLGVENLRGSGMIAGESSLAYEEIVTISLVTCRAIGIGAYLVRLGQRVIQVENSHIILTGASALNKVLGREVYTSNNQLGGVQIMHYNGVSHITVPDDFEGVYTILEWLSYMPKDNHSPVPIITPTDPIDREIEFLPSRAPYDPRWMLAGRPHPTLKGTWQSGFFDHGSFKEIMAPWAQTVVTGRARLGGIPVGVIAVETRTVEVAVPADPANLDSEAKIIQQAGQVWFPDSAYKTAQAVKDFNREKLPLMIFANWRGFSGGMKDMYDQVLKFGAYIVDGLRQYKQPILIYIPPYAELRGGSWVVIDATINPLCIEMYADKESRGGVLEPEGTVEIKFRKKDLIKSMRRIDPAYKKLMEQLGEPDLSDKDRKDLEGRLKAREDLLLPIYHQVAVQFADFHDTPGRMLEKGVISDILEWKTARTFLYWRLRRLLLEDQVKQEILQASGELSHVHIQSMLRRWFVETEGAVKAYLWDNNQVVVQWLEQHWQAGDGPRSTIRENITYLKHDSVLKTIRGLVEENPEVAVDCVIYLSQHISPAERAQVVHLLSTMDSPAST
Procedure text: ACC2 assay (spectrophotometric 384 well assay, NADH-linked kinetic method)
Format: biochemical
Condition info: hACC2 construct lacking 128 N-terminal amino acids; coupled lactate dehydrogenase/pyruvate kinase reaction, 340 nm, 25° C.

{"Smi": "CC(=O)N[C@@H](C)c1ccc(O[C@@H]2CCN(c3nc(N(C)CCO)ncc3Cl)C2)cc1", "IC50 [nM]": 1040}
{"Smi": "COc1cccc(-c2nccc(N3CC[C@@H](Oc4ccc([C@H](C)NC(C)=O)cc4)C3)n2)c1", "IC50 [nM]": 725}
{"Smi": "CCNC(=O)N[C@@H](C)c1ccc(O[C@@H]2CCN(c3nc(N4CCOCC4)ncc3F)C2)cc1", "IC50 [nM]": 576}
{"Smi": "CC(=O)N[C@@H](C)c1ccc(O[C@@H]2CCN(c3nc(N(C)CC(C)(C)O)ncc3Cl)C2)cc1", "IC50 [nM]": 995}

====

Target: human ACC2 (Homo sapiens (Human), UniProt O00763)
Procedure text: ACC2 assay (spectrophotometric 384 well assay, NADH-linked kinetic method)
Format: biochemical
Condition info: hACC2 construct lacking 128 N-terminal amino acids; coupled lactate dehydrogenase/pyruvate kinase reaction, 340 nm, 25° C.
pIC50: −log10 of the molar value.
Entries and their pIC50

{"Compound": "CC(=O)N[C@@H](C)c1ccc(O[C@@H]2CCN(c3ncnc(N4CC[C@H](C)C4)c3F)C2)cc1", "pIC50": 7.30}
{"Compound": "CC(=O)N[C@@H](C)c1ccc(O[C@@H]2CCN(c3ncnc(N4CCC(C)(O)C4)c3F)C2)cc1 (stereo partly shown)", "pIC50": 6.73}
{"Compound": "CC(=O)N[C@@H](C)c1ccc(O[C@@H]2CCN(c3nc(N(C)CC(F)F)ncc3Cl)C2)cc1", "pIC50": 7.15}
{"Compound": "COCCN(C)c1nccc(N2CC[C@@H](Oc3ccc([C@H](C)NC(C)=O)cc3)C2)n1", "pIC50": 6.66}
{"Compound": "CCCN(C)c1ncnc(N2CC[C@@H](Oc3ccc([C@H](C)NC(C)=O)cc3)C2)c1F", "pIC50": 6.98}
{"Compound": "C[C@H](NC(=O)N(C)C)c1ccc(O[C@H]2CCN(c3nc(N4CCOCC4)ncc3F)C2)cc1", "pIC50": 6.95}
{"Compound": "CCN(CC)c1nc(N2CC[C@@H](Oc3ccc([C@H](C)NC(C)=O)cc3)C2)ncc1F", "pIC50": 6.29}
